Hey, just so you know, these numbers are from ChEMBL document CHEMBL3885881.

Species on record: Rattus norvegicus
ASSAY NOTES: DrugMatrix - Regimen: Daily Repeat
Format: toxicity, organism-based, Sprague-Dawley
Set-up: regimen Daily Repeat, gender Male, age 6-8 weeks
EXPERIMENTAL SETUP: in vivo, po, 1500 mg/kg, 120 h, tissue Plasma, route oral GAVAGE, dose level High, time 5 day, vehicle .5 % CMC
MEASUREMENT KIND: ALANINE AMINOTRANSFERASE
Quote the value and follow it with the unit of measurement.

Illustrative cases are given below, each with its answer.
# COMPOUND, ALANINE AMINOTRANSFERASE
records = [
    ("O=C1CCc2cc(OCCCCc3nnnn3C3CCCCC3)ccc2N1", "45 u/L"),
    ("COC(=O)c1ccc(O)cc1", "45.33 u/L"),
    ("NS(=O)(=O)c1cc2c(cc1Cl)NCNS2(=O)=O [HYDROCHLOROTHIAZIDE]", "64.67 u/L"),
]

Shift focus to the following entry.
Query block: ALANINE AMINOTRANSFERASE for `CCOC(=O)[C@H](CCc1ccccc1)N[C@@H](C)C(=O)N1[C@H](C(=O)O)C[C@@H]2CCC[C@@H]21` ?
Result block: 55.33 u/L
